Sourced from patent US8138188B2

experiment: In vitro metabolism rate determination, human liver microsome (HLM) assay; assay type: in vitro ADME; conditions: human liver microsomes, substrate 1 μM; read-out: HLM (intrinsic clearance)
experimentalEndpoint: microsomal CLint at 1 μM (µL/min/mg)
One number for each entry, in µL/min/mg.

Below are worked cases with known answers.
C[C@@H]1CN(C(=O)[C@@H]2CN(c3ccc(C#N)nn3)C[C@H]2c2ccc(Cl)cn2)C[C@H](C)[C@@]1(O)c1ccccc1    105
C[C@@H]1CN(C(=O)[C@@H]2CN(c3ccc(=O)n(C)n3)C[C@H]2c2ccc(F)cn2)C[C@H](C)[C@@]1(O)c1ccc(Cl)cc1    21
C[C@@H]1CN(C(=O)[C@@H]2CN(c3ccc(=O)n(C)n3)C[C@H]2c2ccc(Cl)cn2)C[C@H](C)[C@@]1(O)c1ccccn1    179

Query: For the compound shown here, CC1CN(C(=O)C2CN(c3cncc(F)c3)CC2c2ccc(Cl)cn2)CC(C)C1(O)c1ccc(F)cc1 (stereo not drawn) , give the reported microsomal CLint at 1 μM.
Response: 308

* * *

Assay: In vitro metabolism rate determination, rat liver microsome (RLM) assay
Type: in vitro ADME
Conditions: rat liver microsomes, substrate 1 μM; read-out: RLM (intrinsic clearance)
Protocol: In vitro Metabolism Rate Determination (Human Liver Microsome (HLM); Rat Liver Microsome (RLM) Assay) Many drugs are metabolised by the cytochrome P450 mono-oxygenase system. […] [formula] […] The volume of substrate required in the remaining 1.162.5 ml incubation is calculated as follows: [formula] • N.B. The volume of organic solvent added should not exceed 0.1% of the total incubation volume. […] The microsomal 4-nitroanisole O-demethylase activity is calculated as follows: Calculation of Results […]
What microsomal CLint at 1 μM was measured for each of the following?
Numbers only, in µL/min/mg.

Reference set (2 entries):
C[C@@H]1CN(C(=O)[C@@H]2CN(c3ccc(Cl)nn3)C[C@H]2c2ccc(Cl)cn2)C[C@H](C)[C@@]1(O)c1ccccn1 [Example 31]    292
COc1ccc(C2CN(c3ccc(=O)[nH]n3)CC2C(=O)N2CC(C)C(O)(c3ccc(F)cc3)C(C)C2)nc1 (stereo not drawn) [Example 42]    25

List reported microsomal CLint at 1 μM for each of these compounds:
1. C[C@@H]1CN(C(=O)[C@@H]2CN(c3ccc(=O)[nH]n3)C[C@H]2c2ccc(Cl)cn2)C[C@H](C)[C@@]1(O)c1ccccn1 [Example 28]
2. COc1ccc([C@@H]2CN(c3ccc(=O)[nH]n3)C[C@H]2C(=O)N2C[C@@H](C)[C@](O)(c3ccc(Cl)cn3)[C@@H](C)C2)nc1 [Example 41]

Response:
1: 51; 2: 30

* * *

target: human MC3 receptor (Homo sapiens); construct: stably transfected with full length cDNA encoding human MC1 or MC3 receptors; 'respectively'); test: In vitro agonist potency (EC50) against melanocortin receptor type 3, cAMP in recombinant cell line; settings: cell line stably transfected with human MC3, 1 hour at 37° C.
Sequence (P41968 whole entry): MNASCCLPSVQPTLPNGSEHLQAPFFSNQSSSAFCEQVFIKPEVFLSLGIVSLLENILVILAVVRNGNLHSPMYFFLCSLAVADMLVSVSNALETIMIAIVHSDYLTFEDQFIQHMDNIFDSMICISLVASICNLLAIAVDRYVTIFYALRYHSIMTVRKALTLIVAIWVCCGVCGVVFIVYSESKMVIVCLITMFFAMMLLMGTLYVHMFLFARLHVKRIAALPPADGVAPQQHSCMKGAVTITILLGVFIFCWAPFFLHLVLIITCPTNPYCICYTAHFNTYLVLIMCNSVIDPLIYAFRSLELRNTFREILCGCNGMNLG
pEC50: −log10 of the molar value.
Give Met when the value for pEC50 is at least 7. Give Not met when it is less.

Take a look at these entries with their results.
COc1ccc(C2CN(c3cncc(C#N)c3)CC2C(=O)N2CC(C)C(O)(c3ccc(F)cc3)C(C)C2)cn1 (centres unmarked)    Not met
CC1CN(C(=O)C2CN(c3ccc(=O)n(C)n3)CC2c2ccc(Cl)cn2)CC(C)C1(O)c1ccc(F)c(F)c1 (centres unmarked)    Not met
CC1CN(C(=O)C2CN(c3ccc(=O)n(C)n3)CC2c2ccc(Cl)cn2)CC(C)C1(O)c1ccc(Cl)cc1 (centres unmarked)    Not met
COc1ccc([C@@H]2CN(c3cncc(F)c3)C[C@H]2C(=O)N2C[C@@H](C)[C@](O)(c3ccc(F)cc3)[C@@H](C)C2)cn1    Not met
C[C@@H]1CN(C(=O)[C@@H]2CN(c3ccc(=O)n(C)n3)C[C@H]2c2ccc(Cl)cn2)C[C@H](C)[C@@]1(O)c1ccc(Cl)cn1    Not met
C[C@@H]1CN(C(=O)[C@@H]2CN(c3ccc(C#N)cn3)C[C@H]2c2ccc(Cl)cn2)C[C@H](C)[C@@]1(O)c1ccc(F)cc1    Met
CC1CN(C(=O)C2CN(c3ccc(=O)n(C)n3)CC2c2ccc(Cl)cn2)CC(C)C1(O)c1ccccc1 (centres unmarked)    Not met
COc1ccc([C@@H]2CN(c3ccc(=O)[nH]n3)C[C@H]2C(=O)N2C[C@@H](C)[C@](O)(c3ccc(Cl)cn3)[C@@H](C)C2)nc1    Not met

Query: Please check the record C[C@@H]1CN(C(=O)[C@@H]2CN(c3ccc(Cl)nn3)C[C@H]2c2ccc(Cl)cn2)C[C@H](C)[C@@]1(O)c1ccccn1 and state if its pEC50 is at or above 7.
Response: Not met

Query: Does pEC50 meet or surpass 7 for CC1CN(C(=O)C2CN(c3ccc(=O)[nH]n3)CC2c2ccc(F)cn2)CC(C)C1(O)c1ccccc1 (centres unmarked) ?
Response: Not met

Query: For this compound, is measured pEC50 7 or higher? C[C@@H]1CN(C(=O)[C@@H]2CN(c3ccc(Cl)nn3)C[C@H]2c2ccc(Cl)cn2)C[C@H](C)[C@@]1(O)c1ccc(F)cc1
Response: Met

Query: Record C[C@@H]1CN(C(=O)[C@@H]2CN(c3ccc(=O)[nH]n3)C[C@H]2c2ccc(Cl)cn2)C[C@H](C)[C@@]1(O)c1ccccn1 ; criterion: pEC50 no lower than 7. Met?
Response: Not met

Query: Is pEC50 at least 7? Consider COc1ccc(C2(O)C(C)CN(C(=O)C3CN(c4ccc(=O)n(C)n4)CC3c3ccc(Cl)cn3)CC2C)cc1 (centres unmarked)
Response: Not met

* * *

target: MC4 receptor (Homo sapiens, UniProt P32245); assay: MC4 functional agonist potency (EC50), assay protocol E of US2005/0176772 / WO 2005/077935; conditions: functional potency at the MC4 receptor
Sequence (P32245 whole entry): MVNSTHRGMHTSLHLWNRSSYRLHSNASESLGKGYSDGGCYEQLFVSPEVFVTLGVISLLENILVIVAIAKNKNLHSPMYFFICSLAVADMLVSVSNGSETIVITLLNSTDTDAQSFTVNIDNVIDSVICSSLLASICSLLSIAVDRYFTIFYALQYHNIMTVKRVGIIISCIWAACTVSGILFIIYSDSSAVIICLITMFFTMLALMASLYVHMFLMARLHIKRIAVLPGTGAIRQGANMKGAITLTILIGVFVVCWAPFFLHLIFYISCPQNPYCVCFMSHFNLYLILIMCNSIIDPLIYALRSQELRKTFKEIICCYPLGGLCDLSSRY
Assign pEC50 to each entry below.
Give bare numbers, as −log10 of the molar value.

Worked set:
C[C@@H]1CN(C(=O)[C@@H]2CN(c3ccc(=O)[nH]n3)C[C@H]2c2ccc(Cl)cn2)C[C@H](C)[C@@]1(O)c1ccccn1 [Example 28]    7.61
COc1ccc(N2CC(C(=O)N3CC(C)C(O)(C4CC4)C(C)C3)C(c3ccc(Cl)cn3)C2)nn1 (stereo not drawn) [Example 26]    7.65

# ---- query molecule ----
Query: Please look up its pEC50: COc1ccc([C@@H]2CN(c3ccc(C#N)cn3)C[C@H]2C(=O)N2C[C@@H](C)[C@](O)(c3ccc(F)cc3)[C@@H](C)C2)cn1 [Example 14]
Response: 6.94

* * *

experiment: In vitro metabolism rate determination, human liver microsome (HLM) assay; format: in vitro ADME; details: human liver microsomes, substrate 1 μM; read-out: HLM (intrinsic clearance)
Exercise: for every item that follows, state its recorded microsomal CLint at 1 μM.

Study these solved cases before continuing.
C[C@@H]1CN(C(=O)[C@@H]2CN(c3ccc(=O)[nH]n3)C[C@H]2c2ccc(F)cn2)C[C@H](C)[C@@]1(O)c1ccc(F)cc1 [Example 38]    < 7 µL/min/mg
C[C@@H]1CN(C(=O)[C@@H]2CN(c3ccc(Cl)nn3)C[C@H]2c2ccc(F)cn2)C[C@H](C)[C@@]1(O)c1ccc(F)cc1 [Example 36]    < 7 µL/min/mg

Query molecule follows.
Query: Suppose we examine the molecule C[C@@H]1CN(C(=O)[C@@H]2CN(c3ccc(C#N)nn3)C[C@H]2c2ccc(C#N)cn2)C[C@H](C)[C@@]1(O)c1ccc(F)cc1 [Example 46] ; what microsomal CLint at 1 μM value has been reported?
Response: < 7 µL/min/mg

* * *

target: CYP3A4 (Homo sapiens); construct: utilizes human liver microsomes together with isoform-specific clinical drug probes; from tissue; host or cells: human liver microsomes; experiment: High density drug-drug interactions (DDI) 3 μM cocktail screen in human liver microsomes; type: in vitro ADME; conditions: 3 uM test compound, pooled human liver microsomes, probe midazolam 2 μM; read-out: % Inhibition of 3A4 metabolism at 3 uM
Sequence (P08684 whole entry, canonical isoform): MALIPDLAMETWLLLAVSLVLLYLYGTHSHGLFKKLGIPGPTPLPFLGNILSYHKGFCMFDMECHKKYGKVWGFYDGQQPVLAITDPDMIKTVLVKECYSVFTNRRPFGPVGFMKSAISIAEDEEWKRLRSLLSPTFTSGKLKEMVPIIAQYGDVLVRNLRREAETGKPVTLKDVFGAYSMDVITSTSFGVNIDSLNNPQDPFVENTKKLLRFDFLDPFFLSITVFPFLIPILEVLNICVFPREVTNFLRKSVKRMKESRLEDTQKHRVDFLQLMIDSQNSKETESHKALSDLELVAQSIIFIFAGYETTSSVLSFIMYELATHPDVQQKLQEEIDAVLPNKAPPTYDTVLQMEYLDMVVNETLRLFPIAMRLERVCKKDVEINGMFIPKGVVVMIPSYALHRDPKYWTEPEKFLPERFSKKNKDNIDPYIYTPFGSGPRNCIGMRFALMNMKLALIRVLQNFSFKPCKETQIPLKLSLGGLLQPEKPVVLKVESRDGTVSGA
Hi, to clarify the labels: 1 (yes) covers inhibition at 3 μM from 40% upward, 0 (no) covers anything below 40%.

COc1ccc([C@@H]2CN(c3ccc(Cl)nn3)C[C@H]2C(=O)N2C[C@@H](C)[C@](O)(c3ccc(F)cc3)[C@@H](C)C2)nc1    0 (no)
CC1CN(C(=O)C2CN(c3ccc(=O)n(C)n3)CC2c2ccc(F)cn2)CC(C)C1(O)c1ccccc1 (stereo not shown)    0 (no)
COc1ccc([C@@H]2CN(c3ccc(C#N)nn3)C[C@H]2C(=O)N2C[C@@H](C)[C@](O)(c3ccc(F)cc3)[C@@H](C)C2)nc1    1 (yes)

Query: Is reported inhibition at 3 μM greater than or equal to 40% here: C[C@@H]1CN(C(=O)[C@@H]2CN(c3cccnn3)C[C@H]2c2ccc(Cl)cn2)C[C@H](C)[C@@]1(O)c1ccccn1
Response: 1 (yes)

Query: Say whether C[C@@H]1CN(C(=O)[C@@H]2CN(c3ccc(=O)[nH]n3)C[C@H]2c2ccc(F)cn2)C[C@H](C)[C@@]1(O)c1ccc(F)cc1 shows inhibition at 3 μM of 40% or more.
Response: 1 (yes)

Query: I'd appreciate it if you could say whether C[C@@H]1CN(C(=O)[C@@H]2CN(c3ccc(C#N)nn3)C[C@H]2c2ccc(Cl)cn2)C[C@H](C)[C@@]1(O)c1ccc(F)cc1 has inhibition at 3 μM at least equal to 40%.
Response: 1 (yes)

Query: Hi team, for C[C@@H]1CN(C(=O)[C@@H]2CN(c3ccc(Cl)nn3)C[C@H]2c2ccc(Cl)cn2)C[C@H](C)[C@@]1(O)c1ccccn1 , is the recorded inhibition at 3 μM at or above 40%?
Response: 1 (yes)
